Hi there, I'd appreciate the recorded pEC50 for every entry that follows.
- Tested on: HMPV clinical isolate TN/1501/A1
- experimental details: HMPV antiviral assay Method-B (clinical isolate TN/1501/A1 in LLC-MK2 cells, ATP-Lite readout)
- Assay type: cell-based, Human metapneumovirus (HMPV)
- condition notes: human metapneumovirus, LLC-MK2, 144 h, hMPV WT1501 (clinical isolate TN/1501/A1), 6 days
pEC50: −log10 of the molar value.

Below, 4 molecules whose answers are already recorded.
[
  {
    "record smiles": "COc1cc(C(=O)NC[C@](O)(c2cc3c(c(-c4ccc5cc[nH]c5c4)n2)OC[C@]3(C)C(N)=O)C(F)(F)F)cc2cn(C3CC3)nc12",
    "attribute measured": "pEC50",
    "readout value": "< 6.30"
  },
  {
    "record smiles": "COc1cc(C(=O)NC[C@](O)(c2cc3c(c(-c4ccc(F)cc4)n2)OC[C@]3(C)C(N)=O)C2CC2)cc2cc(Cl)c(Cl)nc12",
    "attribute measured": "pEC50",
    "readout value": "< 6.30"
  },
  {
    "record smiles": "COc1cc(C(=O)NC[C@](O)(c2cc3c(c(-c4c(F)ccc(Cl)c4F)n2)OC[C@]3(C)C(N)=O)C2CC2)cc2cn(C(F)F)nc12",
    "attribute measured": "pEC50",
    "readout value": "> 6.30"
  },
  {
    "record smiles": "COc1cc(C(=O)NC[C@](O)(c2cc3c(c(-c4ccc(F)c(Br)c4F)n2)OC[C@]3(C)C(N)=O)C2CC2)cc2cn(C3(F)CC3)nc12",
    "attribute measured": "pEC50",
    "readout value": "> 6.30"
  }
]

Okay, here is my list. What is pEC50 for each of these?
1. COc1cc(C(=O)NC[C@](O)(c2nc(-c3ccc(F)c(Cl)c3F)c3c(c2F)[C@@](C)(C(N)=O)CO3)C2CC2)cc2cn(C(F)F)nc12
2. COc1cc(C(=O)NC[C@@](O)(c2cc3c(c(-c4ccc(F)c(Br)c4F)n2)OC[C@]3(C)C(N)=O)C(F)(F)F)cc2cn(C3CC3)nc12
3. C[C@]1(C(N)=O)COc2c1cc([C@@](O)(CNC(=O)c1cc(Cl)c3nn(C4CC4)cc3c1)C1CC1)nc2-c1c(F)cc(Cl)cc1F
4. COc1cc(C(=O)NC[C@@](O)(c2cc3c(c(-c4cccc(OC(F)F)c4)n2)OC[C@]3(C)C(N)=O)C(F)(F)F)cc2cn(C3CC3)nc12
5. COc1cc(C(=O)NC[C@](O)(c2cc3c(c(-c4cc(Cl)c(F)c(Cl)c4)n2)OC[C@]3(C)C(N)=O)C(F)(F)F)cc2cn(C(F)F)nc12
6. Cc1cnc2c(OC(F)F)cc(C(=O)NC[C@](O)(c3cc4c(c(-c5ccc(F)c(Cl)c5)n3)OC[C@]4(C(N)=O)C(F)F)C(F)(F)F)cc2c1
7. C[C@]1(C(N)=O)COc2c1cc([C@@](O)(CNC(=O)c1cc(F)c3nc(C4CC4)cn3c1)C1CC1)nc2-c1ccc2c(c1)OC(F)(F)O2

Completion:
1. > 6.30
2. < 6.30
3. > 6.30
4. < 6.30
5. < 6.30
6. < 6.30
7. > 6.30
